Tested on: K. pneumoniae ATCC MS6671
Type: cell-based, Klebsiella pneumoniae
conditions.used: median of triplicate
Positions of bridges follow the written chain, without caps; N, C: chain ends. Non-standard residues stand in square brackets, D forms with d. Residues, ends and D or L forms follow the SMILES beside them. *: point of attachment. Ethyl(2-OPiv) = CC(C)(C)C(=O)OCC*; Ethyl(2-OBz) = O=C(OCC*)c1ccccc1; Dab = NCC[C@H](N)C(=O)O
observed.property: MIC K. pneumoniae ATCC MS6671

Query block: Reported MIC K. pneumoniae ATCC MS6671, compound CC(=O)N[C@@H](CSCCOC(=O)c1ccccc1)C(=O)N[C@@H](CCN)C(=O)N[C@H](C(=O)N[C@@H](CCN)C(=O)N[C@H]1CCNC(=O)[C@H]([C@@H](C)O)NC(=O)[C@H](CCN)NC(=O)[C@H](CCN)NC(=O)[C@H](CSCCOC(=O)c2ccccc2)NC(=O)[C@@H](Cc2ccccc2)NC(=O)[C@H](CCN)NC1=O)[C@@H](C)O [Compound 49] (Ac-C(Ethyl(2-OBz))[Dab]T[Dab][Dab][Dab][dF]C(Ethyl(2-OBz))[Dab][Dab]T; lactam 5-C) : ____
Result block: >32 µg/mL

Query block: Reported MIC K. pneumoniae ATCC MS6671, compound C[C@@H](O)[C@@H]1NC(=O)[C@H](CCN)NC(=O)[C@H](CCN)NC(=O)[C@H](CSCCOC(=O)c2ccccc2)NC(=O)[C@@H](Cc2ccccc2)NC(=O)[C@H](CCN)NC(=O)[C@@H](NC(=O)[C@H](CCN)NC(=O)[C@@H](NC(=O)[C@H](CCN)NC(=O)[C@@H](N)CSCCOC(=O)C(C)(C)C)[C@@H](C)O)CCNC1=O [Compound 46] (H-C(Ethyl(2-OPiv))[Dab]T[Dab][Dab][Dab][dF]C(Ethyl(2-OBz))[Dab][Dab]T; lactam 5-C) : ____
Result block: >32 µg/mL

----------
System: kidney organoids derived from human induced pluripotent stem cells
assay.explanation: Nephrotoxicity on kidney organoids, renal tubule deterioration by bright field imaging; also: key: 1 = unaffected; 2 = mild deterioration; 3 = severe deterioration; 4 = complete deterioration
Type: cell-based
conditions.used: 100 μM, scored after 48 h
Positions of bridges follow the written chain, without caps; N, C: chain ends. Non-standard residues stand in square brackets, D forms with d. Residues, ends and D or L forms follow the SMILES beside them. *: point of attachment. Ethyl(2-propionyloxy) = CCC(=O)OCC*; Ethyl(2-OPiv) = CC(C)(C)C(=O)OCC*; Ethyl(2-OBz) = O=C(OCC*)c1ccccc1; Dab = NCC[C@H](N)C(=O)O; X3 = CCCC(C)C(=O)OCC*
observed.property: Score (nephrotoxicity on kidney organoids)
Answer as a number with no unit attached.

Use the examples below as a reference point.
CCC(=O)OCCSC[C@@H]1NC(=O)[C@@H](Cc2ccccc2)NC(=O)[C@H](CCN)NC(=O)[C@@H](NC(=O)[C@H](CCN)NC(=O)[C@@H](NC(=O)[C@H](CCN)NC(=O)[C@@H](N)CSCCOC(=O)c2ccccc2)[C@@H](C)O)CCNC(=O)[C@H]([C@@H](C)O)NC(=O)[C@H](CCN)NC(=O)[C@H](CCN)NC1=O [Compound 47] (H-C(Ethyl(2-OBz))[Dab]T[Dab][Dab][Dab][dF]C(Ethyl(2-propionyloxy))[Dab][Dab]T; lactam 5-C) = 1
CC(=O)N[C@@H](CSCCOC(=O)c1ccccc1)C(=O)N[C@@H](CCN)C(=O)N[C@H](C(=O)N[C@@H](CCN)C(=O)N[C@H]1CCNC(=O)[C@H]([C@@H](C)O)NC(=O)[C@H](CCN)NC(=O)[C@H](CCN)NC(=O)[C@H](CSCCOC(=O)c2ccccc2)NC(=O)[C@@H](Cc2ccccc2)NC(=O)[C@H](CCN)NC1=O)[C@@H](C)O [Compound 49] (Ac-C(Ethyl(2-OBz))[Dab]T[Dab][Dab][Dab][dF]C(Ethyl(2-OBz))[Dab][Dab]T; lactam 5-C) = 3
C[C@@H](O)[C@@H]1NC(=O)[C@H](CCN)NC(=O)[C@H](CCN)NC(=O)[C@H](CSCCOC(=O)c2ccccc2)NC(=O)[C@@H](Cc2ccccc2)NC(=O)[C@H](CCN)NC(=O)[C@@H](NC(=O)[C@H](CCN)NC(=O)[C@@H](NC(=O)[C@H](CCN)NC(=O)[C@@H](N)CSCCOC(=O)C(C)(C)C)[C@@H](C)O)CCNC1=O [Compound 46] (H-C(Ethyl(2-OPiv))[Dab]T[Dab][Dab][Dab][dF]C(Ethyl(2-OBz))[Dab][Dab]T; lactam 5-C) = 1
C[C@@H](O)[C@@H]1NC(=O)[C@H](CCN)NC(=O)[C@H](CCN)NC(=O)[C@H](CSCCOC(=O)c2ccccc2)NC(=O)[C@@H](Cc2ccccc2)NC(=O)[C@H](CCN)NC(=O)[C@@H](NC(=O)[C@H](CCN)NC(=O)[C@@H](NC(=O)[C@H](CCN)NC(=O)[C@@H](N)CSCCOC(=O)c2ccccc2)[C@@H](C)O)CCNC1=O [Compound 39] (H-C(Ethyl(2-OBz))[Dab]T[Dab][Dab][Dab][dF]C(Ethyl(2-OBz))[Dab][Dab]T; lactam 5-C) = 1

Query block: Record CCCC(C)C(=O)OCCSC[C@@H](N)C(=O)N[C@H](C(=O)N[C@@H](CCN)C(=O)N[C@H]1CCNC(=O)[C@H]([C@@H](C)O)NC(=O)[C@H](CCN)NC(=O)[C@H](CCN)NC(=O)[C@H](CC(C)C)NC(=O)[C@@H](Cc2ccccc2)NC(=O)[C@H](CCN)NC1=O)[C@@H](C)O (some centres unmarked) [Compound 94] (H-[dC](X3)T[Dab][Dab][Dab][dF]L[Dab][Dab]T; lactam 4-C) : what is its Score (nephrotoxicity on kidney organoids) with kidney organoids derived from human induced pluripotent stem cells?
Result block: 1
